# Tested on: Escherichia coli
# PROTOCOL_DESCRIPTION: Ratio of Kcat to Km for Escherichia coli XL1-Blue wild-type IMP-1 beta-lactamase by spectrophotometer
PROPERTY: kcat/Km (µM⁻¹ s⁻¹)
Expressed in µM⁻¹ s⁻¹, but write only the number.

> print(dat)
                                 mol.smiles  recorded.number
1  CO/N=C(\C(=O)N[C@@H]1C(=O)N2C(C(=O)O)=C(COC(C)=O)CS[C@H]12)c1csc(N)n1              4.8
2  C[C@@H](O)[C@H]1C(=O)N2C(C(=O)O)=C(S[C@@H]3CN[C@H](C(=O)N(C)C)C3)[C@H](C)[C@H]12              0.5
3  CC(=O)OCC1=C(C(=O)O)N2C(=O)[C@@H](NC(=O)Cc3cccs3)[C@H]2SC1              6.4

Asked: Please look at this molecule and report its kcat/Km: CO[C@@]1(NC(=O)Cc2cccs2)C(=O)N2C(C(=O)O)=C(COC(N)=O)CS[C@@H]21
Given back: 3

----------
# Test system: Escherichia coli
# PROTOCOL_DESCRIPTION: Activity of Escherichia coli XL1-Blue IMP-1 W64A mutant beta-lactamase by spectrophotometer
PROPERTY: kcat

In the examples that follow, each entry is paired with its recorded kcat.
> print(dat)
                                 mol.smiles  property     result
1  CO[C@@]1(NC(=O)Cc2cccs2)C(=O)N2C(C(=O)O)=C(COC(N)=O)CS[C@@H]21      kcat     40 s⁻¹
2  C[C@@H](O)[C@H]1C(=O)N2C(C(=O)O)=C(SCCNC=N)C[C@H]12      kcat     67 s⁻¹
3  CO/N=C(\C(=O)N[C@@H]1C(=O)N2C(C(=O)O)=C(COC(C)=O)CS[C@H]12)c1csc(N)n1      kcat     98 s⁻¹
4  CC(=O)OCC1=C(C(=O)O)N2C(=O)[C@@H](NC(=O)Cc3cccs3)[C@H]2SC1      kcat  > 250 s⁻¹

Here's the next entry for you.
Asked: Please look at this compound and report its kcat: O=C(Cc1cccs1)N[C@@H]1C(=O)N2C(C(=O)O)=C(/C=C/c3ccc([N+](=O)[O-])cc3[N+](=O)[O-])CS[C@H]12
Given back: 700 s⁻¹

----------
Some compounds, each annotated with its measured kcat.
# Test system: Escherichia coli
# PROTOCOL_DESCRIPTION: Activity of Escherichia coli XL1-Blue wild-type IMP-1 beta-lactamase by spectrophotometer
Expressed in s⁻¹, but write only the number.

> print(dat)
                                 mol.smiles  recorded.number
1  CC(C)(O/N=C(\C(=O)N[C@@H]1C(=O)N2C(C(=O)[O-])=C(C[n+]3ccccc3)CS[C@H]12)c1csc(N)n1)C(=O)O                8
2  CO[C@@]1(NC(=O)Cc2cccs2)C(=O)N2C(C(=O)O)=C(COC(N)=O)CS[C@@H]21                9
3  CO/N=C(\C(=O)N[C@@H]1C(=O)N2C(C(=O)O)=C(COC(C)=O)CS[C@H]12)c1csc(N)n1             13.4

Here's the next entry for you.
Asked: Please look at this compound and report its kcat: O=C(Cc1cccs1)N[C@@H]1C(=O)N2C(C(=O)O)=C(/C=C/c3ccc([N+](=O)[O-])cc3[N+](=O)[O-])CS[C@H]12
Given back: 130
